Value source: patent US11613547B2

# System: mouse mu opioid receptor (mMOR) (Mus musculus, UniProt P42866)
# Construct: expressed in transfected cells; host or cells: HEK-293T, transient (PEI), with BRET sensor cDNAs
# Sequence (P42866 whole entry): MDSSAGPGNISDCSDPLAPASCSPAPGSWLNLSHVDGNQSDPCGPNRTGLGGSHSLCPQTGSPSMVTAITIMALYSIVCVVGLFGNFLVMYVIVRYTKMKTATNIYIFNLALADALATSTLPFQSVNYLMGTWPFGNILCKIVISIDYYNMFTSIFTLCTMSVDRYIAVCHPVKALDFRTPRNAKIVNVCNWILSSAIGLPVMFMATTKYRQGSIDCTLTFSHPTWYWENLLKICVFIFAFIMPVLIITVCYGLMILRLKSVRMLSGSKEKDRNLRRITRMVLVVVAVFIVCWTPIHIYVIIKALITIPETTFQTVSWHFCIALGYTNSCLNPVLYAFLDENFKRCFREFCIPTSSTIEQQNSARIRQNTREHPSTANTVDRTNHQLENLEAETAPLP
# Method summary: cell-based
# Type: cell-based
Assay readout: EC50

# get_value(readout='EC50', item= NCc1cccc(C(=O)NC2CCC3C4Cc5ccc(O)c6c5C3(CCN4CC3CC3)C2O6)c1 (stereo not shown) )
3.61 nM

====

# System: Y312W-hKOR (Homo sapiens, UniProt P41145, Y312W)
# Sequence (P41145 whole entry Y312W): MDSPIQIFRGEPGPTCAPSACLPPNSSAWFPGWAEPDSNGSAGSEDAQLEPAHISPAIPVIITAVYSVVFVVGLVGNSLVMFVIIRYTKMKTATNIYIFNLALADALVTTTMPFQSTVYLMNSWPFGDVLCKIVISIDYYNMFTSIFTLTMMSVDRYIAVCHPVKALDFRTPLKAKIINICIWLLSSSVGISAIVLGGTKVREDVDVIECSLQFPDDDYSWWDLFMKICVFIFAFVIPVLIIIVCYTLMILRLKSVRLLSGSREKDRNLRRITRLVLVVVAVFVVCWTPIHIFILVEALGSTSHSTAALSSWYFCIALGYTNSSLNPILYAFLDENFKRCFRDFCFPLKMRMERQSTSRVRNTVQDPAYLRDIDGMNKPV
# Method summary: Tango-arrestin recruitment assay, Y312W-hKOR mutant
# Format: cell-based
# Parameters: expressed in transfected cells
# Test context: Tango
Assay readout: EC50 (nM)
Give your result in nM as a bare value.

# get_value(readout='EC50', item= O=C(N[C@@H]1CCC2C3Cc4ccc(O)c5c4C2(CCN3CC2CC2)C1O5)c1cccc(I)c1 (stereo partly shown) [MP1202] )
3.4

====

Item-by-item account of pEC50
# System: hKOR (Homo sapiens)
# Construct: expressed in transfected cells; host or cells: HEK 293T (ATCC CRL-11268), transient
# Sequence (P41145 whole entry): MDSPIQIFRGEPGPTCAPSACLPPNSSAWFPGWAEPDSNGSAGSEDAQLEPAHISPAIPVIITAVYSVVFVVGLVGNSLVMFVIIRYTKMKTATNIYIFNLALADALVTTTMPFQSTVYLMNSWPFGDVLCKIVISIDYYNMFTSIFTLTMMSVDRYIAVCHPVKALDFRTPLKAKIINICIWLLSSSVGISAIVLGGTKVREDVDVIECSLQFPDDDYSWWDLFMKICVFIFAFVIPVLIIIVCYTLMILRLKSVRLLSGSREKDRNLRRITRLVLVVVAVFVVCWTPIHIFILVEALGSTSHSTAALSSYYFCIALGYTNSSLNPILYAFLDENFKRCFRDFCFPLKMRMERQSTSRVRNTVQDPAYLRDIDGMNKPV
# Method summary: Tango β-arrestin recruitment assay, hKOR
# Type: cell-based
# Test context: Tango, WT-hKOR
Scale explanation: pEC50 corresponds to minus log10 of a concentration expressed in moles per litre.

# get_value(readout='pEC50', item= O=C(N[C@@H]1C=CC2[C@H]3Cc4ccc(O)c5c4[C@@]2(CCN3CC2CC2)[C@H]1O5)c1cccc(I)c1 (stereo partly shown) [MP1104, reference compound] )
10.40

# get_value(readout='pEC50', item= O=C(N[C@@H]1CC[C@@]2(O)[C@H]3Cc4ccc(O)c5c4[C@@]2(CCN3CC2CC2)[C@H]1O5)c1cccc(I)c1 [IBNtxA, reference compound] )
10.89

# get_value(readout='pEC50', item= CO[C@@]12CC[C@@H](NC(=O)c3cccc(I)c3)C3Oc4c(O)ccc5c4[C@@]31CCN(CC1CC1)C2C5 (stereo partly shown) [MP1305] )
7.59

Next:
# get_value(readout='pEC50', item= NCc1cccc(C(=O)NC2CCC3C4Cc5ccc(O)c6c5C3(CCN4CC3CC3)C2O6)c1 (stereo not shown) [MP1207] )
8.40

# get_value(readout='pEC50', item= NCc1ccc(C(=O)N[C@@H]2CC[C@H]3[C@H]4Cc5ccc(O)c6c5[C@@]3(CCN4CC3CC3)[C@H]2O6)cc1 [MP1209] )
9.43

# get_value(readout='pEC50', item= N=C(N)NCc1cccc(C(=O)N[C@@H]2CCC3C4Cc5ccc(O)c6c5[C@@]3(CCN4CC3CC3)C2O6)c1 (stereo partly shown) [MP1208] )
7.78

# get_value(readout='pEC50', item= O=C(N[C@@H]1CCC2C3Cc4ccc(O)c5c4C2(CCN3CC2CC2)C1O5)c1cccc(I)c1 (stereo partly shown) [MP1202] )
10.34

====

# System: hMOR (Homo sapiens, UniProt P35372)
# Construct: expressed in transfected cells; host or cells: HEK 293T (ATCC CRL-11268), transient
# Sequence (P35372 whole entry): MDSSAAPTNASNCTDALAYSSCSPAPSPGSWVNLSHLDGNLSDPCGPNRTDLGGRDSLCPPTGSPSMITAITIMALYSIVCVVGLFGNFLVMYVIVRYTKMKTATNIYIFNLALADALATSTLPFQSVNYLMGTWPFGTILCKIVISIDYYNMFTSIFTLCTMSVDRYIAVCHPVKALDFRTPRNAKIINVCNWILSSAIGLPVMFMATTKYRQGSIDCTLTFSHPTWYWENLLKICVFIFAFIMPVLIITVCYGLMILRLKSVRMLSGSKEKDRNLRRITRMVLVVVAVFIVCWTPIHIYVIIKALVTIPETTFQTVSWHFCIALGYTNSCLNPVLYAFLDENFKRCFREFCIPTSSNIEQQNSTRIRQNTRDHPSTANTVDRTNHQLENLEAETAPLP
# Method summary: cell-based
# Type: cell-based
Item-by-item account of Gi pEC50±SEM hMOR
The answer should be written as a number, with no unit following it.

Solved cases (3 shown):
# get_value(readout='Gi pEC50±SEM hMOR', item= CO[C@@]12CC[C@@H](NC(=O)c3cccc(I)c3)C3Oc4c(O)ccc5c4[C@@]31CCN(CC1CC1)C2C5 (stereo partly drawn) )
9.9

# get_value(readout='Gi pEC50±SEM hMOR', item= O=C(N[C@@H]1CC[C@H]2[C@H]3Cc4ccc(O)c5c4[C@@]2(CCN3CC2CC2)[C@H]1O5)c1cccc(CO)c1 )
9.81

# get_value(readout='Gi pEC50±SEM hMOR', item= NCc1ccc(C(=O)N[C@@H]2CC[C@H]3[C@H]4Cc5ccc(O)c6c5[C@@]3(CCN4CC3CC3)[C@H]2O6)cc1 )
9.61

Next:
# get_value(readout='Gi pEC50±SEM hMOR', item= O=C(N[C@@H]1CC[C@@]2(O)C3Cc4ccc(O)cc4[C@@]2(CCN3CC2CC2)C1)c1cccc(I)c1 )
9.99

# get_value(readout='Gi pEC50±SEM hMOR', item= O=C(N[C@@H]1C=CC2[C@H]3Cc4ccc(O)c5c4[C@@]2(CCN3CC2CC2)[C@H]1O5)c1cccc(I)c1 (stereo partly drawn) [MP1104, reference compound] )
10.13

# get_value(readout='Gi pEC50±SEM hMOR', item= O=C(N[C@@H]1CC[C@@]2(O)[C@H]3Cc4ccc(O)c5c4[C@@]2(CCN3CC2CC2)[C@H]1O5)c1cccc(I)c1 [IBNtxA, reference compound] )
10.2
